Measured self-cleavage kobs at 40 uM GlcN6P of individual entries
B1: glmS ribozyme (parent)
chain: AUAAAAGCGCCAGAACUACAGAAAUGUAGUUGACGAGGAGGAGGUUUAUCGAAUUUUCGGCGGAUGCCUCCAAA

- Variants of: B1
- Method Description: self-cleavage kobs at 40 uM GlcN6P; higher = faster cleavage; RNA array
- Condition Description: with glucosamine-6-phosphate
Fewer inactive variants are shown than the library holds.
Parameter: self-cleavage kobs at 40 uM GlcN6P

>  <Polymer Sequence>
AUAAAAGCGCCAGAACUACAGAAAUGUAGUUGCCGAGGAGGAGGUUUAUCGAAUUUUCGGCGGAGGCCUCCAAA

>  <Parameter>
self-cleavage kobs at 40 uM GlcN6P

>  <Recorded Measurement>
< 1e-05 s⁻¹

$$$$
>  <Polymer Sequence>
AUAAAAGCGCCACAACUACAGAAAUGUAUUUAACGAGGAGGAGGUUUAUCGAAUUUUCGGCGGAUGCCUCCAAA

>  <Parameter>
self-cleavage kobs at 40 uM GlcN6P

>  <Recorded Measurement>
7.61e-05 s⁻¹

$$$$
>  <Polymer Sequence>
AUAAAAGCGCCAGGACUACAGAAAUGUAGUUGACGAGGAGGAGGUUUAUGGAAUUUUCGGCGGAUGCUACGAAA

>  <Parameter>
self-cleavage kobs at 40 uM GlcN6P

>  <Recorded Measurement>
0.000105 s⁻¹

$$$$
>  <Polymer Sequence>
AUAAAAGCGCCAGAACUACAGAAAUGUAGUUCACGCCGAGGAGGUUUAUCGAAUUUUCGGCGGAUGCCUCCAAA

>  <Parameter>
self-cleavage kobs at 40 uM GlcN6P

>  <Recorded Measurement>
< 1e-05 s⁻¹

$$$$
>  <Polymer Sequence>
AUAAAAGCGCCAGAACUACAGAAAUGUAGUUGCCGAGGAGGAAAUUUAUCGAAUUUUCGGCGGAUGCCUCCAAA

>  <Parameter>
self-cleavage kobs at 40 uM GlcN6P

>  <Recorded Measurement>
< 1e-05 s⁻¹

$$$$
>  <Polymer Sequence>
AUAAAAGCGCCAGAACUACAGAAAUGUAGUCGACGAGGUGGAGGUUUAUCGAACUUUCGGCGGAUGCCUCUAAA

>  <Parameter>
self-cleavage kobs at 40 uM GlcN6P

>  <Recorded Measurement>
5.15e-05 s⁻¹

$$$$
>  <Polymer Sequence>
AUAAAAGCGCCAGAACUACAGAAAUGUAGUUGACGAGGAGGAGGUUUAACGAAUUUUCGGCUGAUGCCUCCAAA

>  <Parameter>
self-cleavage kobs at 40 uM GlcN6P

>  <Recorded Measurement>
< 1e-05 s⁻¹

$$$$
>  <Polymer Sequence>
AUAAAAGCGCCAGAACUACAGAAAUGUAGUUGACGGGGAGGAGGUUUAUCGAAUUUUCGACGGAUGCCUCCAAA

>  <Parameter>
self-cleavage kobs at 40 uM GlcN6P

>  <Recorded Measurement>
< 1e-05 s⁻¹

$$$$
>  <Polymer Sequence>
AUAAAAGCGCCAGAACUACAGAAAUGUAGUUGACGAGGAGGAGGUUUAUGGAAUUUUCGGCGGAUGCCUCUAAA

>  <Parameter>
self-cleavage kobs at 40 uM GlcN6P

>  <Recorded Measurement>
6.9e-05 s⁻¹

$$$$
>  <Polymer Sequence>
AUAAAAGCGCCAGAACUACAGAAAUGUAGUUGACCAGGAGGAGGUUUAUCGAAUUUUCGGGGGAUGCGUCCAAA

>  <Parameter>
self-cleavage kobs at 40 uM GlcN6P

>  <Recorded Measurement>
7.74e-05 s⁻¹

$$$$
>  <Polymer Sequence>
AUAAAAGCGCCAUAACUACAGAAAUGUAGUUGACGAGGAGGAGGUUUAUCGAAUUUUCCGCGGAUGCCUCCAAA

>  <Parameter>
self-cleavage kobs at 40 uM GlcN6P

>  <Recorded Measurement>
< 1e-05 s⁻¹

$$$$
>  <Polymer Sequence>
AUAAAAGCGCGAGAACUACAGAAAUGUAGCUGACGAGGAGGAGGUUUAUCGAAUUUUCGGCGGAUGCCUCCAAA

>  <Parameter>
self-cleavage kobs at 40 uM GlcN6P

>  <Recorded Measurement>
< 1e-05 s⁻¹

$$$$
>  <Polymer Sequence>
AUAAAAGCGCCAGAACUACAGAAAUGUAGUAGACGAGGAGGAGGUUUAUCGAAUUUUCGGCGGAGGCCUCCAAA

>  <Parameter>
self-cleavage kobs at 40 uM GlcN6P

>  <Recorded Measurement>
3.37e-05 s⁻¹

$$$$
>  <Polymer Sequence>
AUAAAAGCGCCAGAACUACAGAAAUGUAGUUGACGAGGAGGAUGUAUAUCGAAUUUCCGGCGGAUGCCUACAAA

>  <Parameter>
self-cleavage kobs at 40 uM GlcN6P

>  <Recorded Measurement>
< 1e-05 s⁻¹

$$$$
>  <Polymer Sequence>
AUAAAAGCGCCAGAACUACAGAAAUGUAGUUGACGAGGAGGAGUUUUAUCGAAUUUUCGGCGGAUGUCUCCAAA

>  <Parameter>
self-cleavage kobs at 40 uM GlcN6P

>  <Recorded Measurement>
0.000365 s⁻¹

$$$$
>  <Polymer Sequence>
AUAAAAGCGCCAGAACUACAGAAAUGUAGUUUACGAGGUGGAGGUUUAUCGAAUUUUCGACGGAUGUCUCCAAA

>  <Parameter>
self-cleavage kobs at 40 uM GlcN6P

>  <Recorded Measurement>
< 1e-05 s⁻¹

$$$$
>  <Polymer Sequence>
AUAAAAGCGCAAGAACUACAGAAAUGUAGUUGACGAGGAGGAGGUUUUUCGUAUUUUCGGCGGAUGCCUCCAAA

>  <Parameter>
self-cleavage kobs at 40 uM GlcN6P

>  <Recorded Measurement>
< 1e-05 s⁻¹

$$$$
>  <Polymer Sequence>
AUAAAAGCGCCAGAACUACAGAAAUGUAGUUAACGAGGAGGAGCUUUAUCGAAUUUUCGGCGGAUGUCUCCAAA

>  <Parameter>
self-cleavage kobs at 40 uM GlcN6P

>  <Recorded Measurement>
< 1e-05 s⁻¹

$$$$
>  <Polymer Sequence>
AUAAAAGCGCCAGAACUACAGAAAUGUAGUUGACGAGGAGGAGGUUUCUCGAAUUUUCGGCGGAUGCCUACAAA

>  <Parameter>
self-cleavage kobs at 40 uM GlcN6P

>  <Recorded Measurement>
< 1e-05 s⁻¹

$$$$
>  <Polymer Sequence>
AUAAAAGCGCCAAAACUACAGAAAUGUAGUUGACGAGGAGGAGGUUUAUCGAAAUUUCGGCGGAUGCCUCCAAA

>  <Parameter>
self-cleavage kobs at 40 uM GlcN6P

>  <Recorded Measurement>
5.62e-05 s⁻¹

$$$$
>  <Polymer Sequence>
AUAAAAGCGCCAGAACUACAGAAAUGUAGUUCGCGAGGAGGAGGUUUAUCGAAUUUUCGGCGGAUGCCUCCAAA

>  <Parameter>
self-cleavage kobs at 40 uM GlcN6P

>  <Recorded Measurement>
< 1e-05 s⁻¹

$$$$
>  <Polymer Sequence>
AUAAAAGCGCCAGAACUACAGAAAUGUAGUUGUCGAGGAGGAGGUUUACCGAAUUUUCGGCGGAUGCCUCCAAA

>  <Parameter>
self-cleavage kobs at 40 uM GlcN6P

>  <Recorded Measurement>
< 1e-05 s⁻¹

$$$$
>  <Polymer Sequence>
AUAAAAUCGCCAGAACUACAGAAAUGUAAUUGACGAGGAGGAGGUUUGUCGAAUUUUCGGCGGAUGCCUCCAAA

>  <Parameter>
self-cleavage kobs at 40 uM GlcN6P

>  <Recorded Measurement>
< 1e-05 s⁻¹

$$$$
>  <Polymer Sequence>
AUAAAAGCGCCAGAACUACAGAAAUGUAGUUGACGAGGAGGAGUUUUAUCGAAUUUUCGGCGGAUGCCUACAAA

>  <Parameter>
self-cleavage kobs at 40 uM GlcN6P

>  <Recorded Measurement>
< 1e-05 s⁻¹

$$$$
>  <Polymer Sequence>
AUAAAAGCGACAGAACUACAGAAAUGUAGUUGACGAGAAGGAGGUUUAUCGAUUUUUCGGCGGAUGCAUCCAAA

>  <Parameter>
self-cleavage kobs at 40 uM GlcN6P

>  <Recorded Measurement>
< 1e-05 s⁻¹

$$$$
>  <Polymer Sequence>
AUAAAAUCGCCAGAACUACAGAAAUGUAGUUGACGAGGAGGAGGUUUAUCGAAUUUUCGGCCGAUGCCUCCAAA

>  <Parameter>
self-cleavage kobs at 40 uM GlcN6P

>  <Recorded Measurement>
< 1e-05 s⁻¹

$$$$
>  <Polymer Sequence>
AUAAAAUCGACUGAACUACAGAAAUGUAGUUGACGGGGAGGAGGUUUAUGGAAUUUUCGGCGGAUGCCUCCAAA

>  <Parameter>
self-cleavage kobs at 40 uM GlcN6P

>  <Recorded Measurement>
0.000144 s⁻¹

$$$$
>  <Polymer Sequence>
AUAAAACCGCCAGAACUACAGAAAUGUAGUUGACGAGGAGGAGGUUUAUCUAAUUUUCGGCGGAUGCCUCCAAA

>  <Parameter>
self-cleavage kobs at 40 uM GlcN6P

>  <Recorded Measurement>
< 1e-05 s⁻¹

$$$$
>  <Polymer Sequence>
AUAAAAGCGCCAGAACUACAGAAAUGUAGUUGACGAGGACGAGGUUUAUCGAAUUCUCGGCGGAUGCCUCCAAA

>  <Parameter>
self-cleavage kobs at 40 uM GlcN6P

>  <Recorded Measurement>
< 1e-05 s⁻¹

$$$$
>  <Polymer Sequence>
AUAAAAGCGGCAGAACUACAGAAAUGUAGUUGACGAGCAGGAGGUUUAUCGAAUUUUCGGCGGAUGCCGCCAAA

>  <Parameter>
self-cleavage kobs at 40 uM GlcN6P

>  <Recorded Measurement>
< 1e-05 s⁻¹

$$$$
>  <Polymer Sequence>
AUAAAAGCGCCAGAGCUACAGAAAUGUAGUUGACGAGGAGGAGGUUUAUCGGAUUUUCGGCGUAUGCCUCCAAA

>  <Parameter>
self-cleavage kobs at 40 uM GlcN6P

>  <Recorded Measurement>
< 1e-05 s⁻¹

$$$$
>  <Polymer Sequence>
AUAAAAGCGCCGGAACUACAGAAAUGUAGUUGACGAGGAGGAGGUUUAUCGAAUUUUCGGCGAUUGCCUCCAAA

>  <Parameter>
self-cleavage kobs at 40 uM GlcN6P

>  <Recorded Measurement>
< 1e-05 s⁻¹

$$$$
>  <Polymer Sequence>
AUAAAAGCGCCAGGACUACAGAAAUGUAGUUGACGAGGGGAAGGUUUAUCGAAUGUUCGGCGGAUGCCCCCAUA

>  <Parameter>
self-cleavage kobs at 40 uM GlcN6P

>  <Recorded Measurement>
< 1e-05 s⁻¹

$$$$
>  <Polymer Sequence>
AUAAAAGCGCCAGAAAUACAGAAAUGUAGUUGACGAGGAGGAGGUUUAUCGAAUGUUCGGCGGAUGCCUCCAAA

>  <Parameter>
self-cleavage kobs at 40 uM GlcN6P

>  <Recorded Measurement>
4.26e-05 s⁻¹

$$$$
>  <Polymer Sequence>
AUAAACGCGCCGGAACUACAGAAAUGUAGUUGACGAGGAGGAGGUUUAUCGAAUUUUCGGCGGAUGCCUCCAAA

>  <Parameter>
self-cleavage kobs at 40 uM GlcN6P

>  <Recorded Measurement>
< 1e-05 s⁻¹

$$$$
>  <Polymer Sequence>
AUAAAAGCGCCAGAACUACAGAAAUGUAGUUGACGAGGAGGAUGUUUAUUGAAUGUUCGGCGGAUGCCUCCAAA

>  <Parameter>
self-cleavage kobs at 40 uM GlcN6P

>  <Recorded Measurement>
< 1e-05 s⁻¹

$$$$
>  <Polymer Sequence>
AUAAAAGCGCCAGAACUACAGAAAUGUAGUUGACGAGGAGGAGGUUUAUCGAUUUUUCGGCGGAUGCCUCGAAA

>  <Parameter>
self-cleavage kobs at 40 uM GlcN6P

>  <Recorded Measurement>
9.68e-05 s⁻¹

$$$$
>  <Polymer Sequence>
AUAAAAGCGCCAGAAUUACAGAAAUGUAGUUGACGAGAAGGAGGUUUAUCGAAUUUUCGGCGGAUGCCUCCAAA

>  <Parameter>
self-cleavage kobs at 40 uM GlcN6P

>  <Recorded Measurement>
< 1e-05 s⁻¹

$$$$
>  <Polymer Sequence>
AUAAAAGCGCCAGAACUACAGAAAUGUAGUUGGCGAGGAGAAGGUUUAUCGAAUUUUCGGCGGAUGCCUCCAAA

>  <Parameter>
self-cleavage kobs at 40 uM GlcN6P

>  <Recorded Measurement>
< 1e-05 s⁻¹

$$$$
>  <Polymer Sequence>
AUAAAAUCGCCCGAACUACAGAAAUGUACUUGACGAGGAGGAGGUUUAUCGAAUUUUCGGCGGAUGCCUCCAAA

>  <Parameter>
self-cleavage kobs at 40 uM GlcN6P

>  <Recorded Measurement>
< 1e-05 s⁻¹

$$$$
>  <Polymer Sequence>
AUAAAAGCGCCAGAACUACAGAAAUGUAGUGGACGAGGAGGAGGUUUAUCGAAUUUGCGGCGGAUGCCUCCAAA

>  <Parameter>
self-cleavage kobs at 40 uM GlcN6P

>  <Recorded Measurement>
< 1e-05 s⁻¹

$$$$
>  <Polymer Sequence>
AUAAAAGCGCCAGAAUUACAGAAAUGUAGUUGACGAGGAGGAGGUAUAUCGAAUUUUCGGCGGAUGCCUCCAAA

>  <Parameter>
self-cleavage kobs at 40 uM GlcN6P

>  <Recorded Measurement>
5.67e-05 s⁻¹

$$$$
>  <Polymer Sequence>
AUAAAAUCGCCAGAACUACAGAAAUGUAGUAUACGAGGAGUAGGUUUUUCGAAUUUUCGGCGGAUGCCUCCAAA

>  <Parameter>
self-cleavage kobs at 40 uM GlcN6P

>  <Recorded Measurement>
< 1e-05 s⁻¹

$$$$
>  <Polymer Sequence>
AUAAAAGCGCCAGCACUACAGAAAUGUAUUUGACGAGUAGGAGAUUUAUCGAAUUUUCGGCGGUUGCCUCCAAA

>  <Parameter>
self-cleavage kobs at 40 uM GlcN6P

>  <Recorded Measurement>
< 1e-05 s⁻¹

$$$$
>  <Polymer Sequence>
AUAAAAGCGCCAGAACUACAGAAAUGUAGUUCACGAGGAGGAGGUUGAUCGAAUGUUCGGCGGACGCCGCCAAA

>  <Parameter>
self-cleavage kobs at 40 uM GlcN6P

>  <Recorded Measurement>
0.000245 s⁻¹

$$$$
>  <Polymer Sequence>
AUAAAAGCGCCAGAACUACAGAAAUGUAGUUGACAAGGAGGAGGUUUAUCGAAUUUUCGGCGGAUUCCUCCAAA

>  <Parameter>
self-cleavage kobs at 40 uM GlcN6P

>  <Recorded Measurement>
< 1e-05 s⁻¹

$$$$
